This collection of values is drawn from ChEMBL document CHEMBL1145242.

method.notes: Half life value in human serum
Type: ADME, cell-free
Exercise: for every item that follows, state its recorded half-life.
Quick reminder: number only, in min, skip the unit.

stdin: Which half-life is reported for this compound? COCCOCCOCCOC(=O)OC[n+]1ccc(N/C(=N/CCCCCCOc2ccc(Cl)cc2)NC#N)cc1.[Cl-]
stdout: 30

stdin: Which half-life is reported for this compound? COCCOCCOC(=O)OC[n+]1ccc(N/C(=N/CCCCCCOc2ccc(Cl)cc2)NC#N)cc1.[Cl-]
stdout: 27

stdin: Which half-life is reported for this compound? COCCOCCOCCOCCOC(=O)OC[n+]1ccc(N/C(=N/C#N)NCCCCCCOc2ccc(Cl)cc2)cc1.[Cl-] [TEGLARINAD CHLORIDE]
stdout: 25

stdin: Which half-life is reported for this compound? Cl.N#CN/C(=N\CCCCCCOc1ccc(Cl)cc1)Nc1cc[n+](COC(=O)OCCCCCCCCCN)cc1.[Cl-]
stdout: 15
